# Test system: Mus musculus
# Assay comment: Ratio of median survival time of treated mice (T) to that of median survival time of controls (C) in mice infected with p388 cells (in vivo) at a dose of 0.78 mg/kg
# Assay type: functional
Measured T/C, listed per entry.
I only need the number, in %, no unit after it.

| Compound | Value measured |
| --- | --- |
| COc1cccc2c1C(=O)c1c(O)c3c(c(O)c1C2=O)C[C@@](O)(C(=O)CO)C[C@@H]3O[C@H]1C[C@H](N)[C@H](O)[C@H](C)O1 [DOXORUBICIN] | 173 |
| COc1cc([C@@H]2c3cc4c(cc3[C@@H](O[C@@H]3O[C@@H]5CO[C@@H](C)O[C@H]5[C@H](O)[C@H]3O)[C@H]3COC(=O)[C@H]23)OCO4)cc(OC)c1O [ETOPOSIDE] | 138 |

Okay, now this compound:
Measured T/C of CN[C@@H]1CN(c2ccc3c(=O)c(C(=O)O)cn(-c4nccs4)c3n2)C[C@H]1OC.Cl : 125

---

# Tested on: P388
# Assay comment: Cytotoxic activity against murine P388 leukemia cells
# Type: functional, cell-based
# Condition description: Mus musculus
Measure name: IC50 (µg/mL)
Dear colleague, please return just the value in µg/mL, with no unit written.

| Compound | Reading unit | Value measured |
| --- | --- | --- |
| Cl.Nc1cc2c(=O)c(C(=O)O)cn(-c3nccs3)c2nc1N1CCC(N)C1 (stereo unspecified) | µg/mL | 1.01 |

// moving on: another record for IC50
Input C#Cc1ccc2c(=O)c(C(=O)O)cn(-c3nccs3)c2n1 . Output IC50: 2.3

---

# Tested on: P388
# Assay comment: Cytotoxic activity against murine P388 leukemia cells
# Format: functional, cell-based
# Condition description: Mus musculus
IC50 values for the molecules below.
Field: numeric (mg/L). Do not append units.

Consider Cl.O=C(O)c1cn(-c2nccs2)c2nc(N3CCOCC3)ccc2c1=O . Its measured IC50 is 0.12

Value of IC50 reported for the molecule Cl.NC1CCN(c2nc3c(cc2Cl)c(=O)c(C(=O)O)cn3-c2nccs2)C1 (centres undefined) is 0.227

In plain terms, CO[C@H]1CN(c2ccc3c(=O)c(C(=O)O)cn(-c4nccs4)c3n2)C[C@@H]1N.Cl has a documented IC50 of 0.018

Query CCN[C@H]1CN(c2ccc3c(=O)c(C(=O)O)cn(-c4nccs4)c3n2)C[C@@H]1OC.Cl yields IC50 of 0.025

Notebook: C[C@H]1CN(c2ccc3c(=O)c(C(=O)O)cn(-c4nccs4)c3n2)C[C@]1(C)N.Cl , IC50 read as 0.02

Value of IC50 reported for the molecule CNC1(C)CCN(c2ccc3c(=O)c(C(=O)O)cn(-c4nccs4)c3n2)C1.Cl (centres undefined) is 0.018

---

# Tested on: P388
# Assay comment: Cytotoxic activity against murine P388 leukemia cells
# Assay type: functional, cell-based
# Condition description: Mus musculus
Consider the reported IC50 of an entry and match it to a band in low: < 0.02 µg/mL; intermediate: ≥ 0.02 µg/mL and < 0.09 µg/mL; high: ≥ 0.09 µg/mL

| Molecule | Group label |
| --- | --- |
| COc1ccccc1N1CCN(c2ccc3c(=O)c(C(=O)O)cn(-c4nccs4)c3n2)CC1.Cl | high |
| Cl.O=C(O)c1cn(-c2nccs2)c2nc(N3CCc4ccccc4C3)ccc2c1=O | high |

*Q* State the band of CNC1CN(c2ccc3c(=O)c(C(=O)O)cn(-c4nccs4)c3n2)C1.Cl
*A* intermediate

*Q* Entry O=C(O)c1cn(-c2nccs2)c2nc(-c3ccccc3)ccc2c1=O belongs to which category?
*A* high

*Q* Record CC1(N)CCN(c2ccc3c(=O)c(C(=O)O)cn(-c4nccs4)c3n2)C1.Cl (stereo not drawn) — which class?
*A* low

*Q* Which class is correct for the following molecule? Cl.NC1CCN(c2ccc3c(=O)c(C(=O)O)cn(-c4nccs4)c3n2)C1 (stereo not drawn)
*A* low

*Q* Bin this entry: CNC1CCCN(c2ccc3c(=O)c(C(=O)O)cn(-c4nccs4)c3n2)C1.Cl (stereo not drawn)
*A* high

*Q* Bin? C[C@H]1CN(c2ccc3c(=O)c(C(=O)O)cn(-c4nccs4)c3n2)C[C@@H]1N.Cl
*A* low

*Q* Textbook exercise: identify the category of the molecule given here, Cl.NC1CCN(c2nc3c(cc2O)c(=O)c(C(=O)O)cn3-c2nccs2)C1 (stereo not drawn) , according to its measured value.
*A* high

---

# Tested on: P388
# Assay comment: Cytotoxic activity against murine P388 leukemia cells
# Assay type: functional, cell-based
# Condition description: Mus musculus
Listing: IC50 of selected compounds

Consider the reported IC50 for these compounds:
| Compound | IC50 |
| --- | --- |
| C=Cc1ccc2c(=O)c(C(=O)O)cn(-c3nccs3)c2n1 | > 1 µg/mL |
| Cl.NC1CCN(c2cc(C(F)(F)F)c3c(=O)c(C(=O)O)cn(-c4nccs4)c3n2)C1 (centres undefined) | 0.098 µg/mL |
| Cl.N[C@H]1CN(c2ccc3c(=O)c(C(=O)O)cn(-c4nccs4)c3n2)C[C@@H]1CCl | 0.024 µg/mL |
| CN[C@H]1CN(c2ccc3c(=O)c(C(=O)O)cn(-c4nccs4)c3n2)C[C@@H]1SC.Cl | 0.02 µg/mL |
| C[C@H]1[C@H](N)CCN1c1ccc2c(=O)c(C(=O)O)cn(-c3nccs3)c2n1.Cl | 0.094 µg/mL |

Tested on P388: Cl.O=C(O)c1cn(-c2nccs2)c2nc(N3CCCC3)ccc2c1=O . Observed IC50: 0.066 µg/mL

Note to self: IC50 of CN[C@@H]1CN(c2ccc3c(=O)c(C(=O)O)cn(-c4nccs4)c3n2)C[C@H]1OC.Cl with P388 was 0.021 µg/mL
